For each record, write down the corresponding GI50.
# System: SN12C renal
# ASSAY_OVERVIEW: NCI tumour cell line growth inhibition, 48 h

The following compounds have reported results that may help.
>  <COMPOUND>
CN1CCCN(C(c2ccccc2)c2ccc(Br)cc2)CC1 (centres undefined)

>  <SYSTEM_TESTED>
SN12C renal

>  <GI50>
3.51 µM

$$$$
>  <COMPOUND>
C[C@@]1(N2C(=O)OC[C@@H]2c2ccccc2)C(=O)N([C@H](CC(=O)N2CCC(N3CCCCC3)CC2)C(=O)NCc2cccc(C(F)(F)F)c2)[C@@H]1/C=C/c1ccccc1

>  <SYSTEM_TESTED>
SN12C renal

>  <GI50>
2 µM

$$$$

Items follow; give GI50 for each.
1. CCc1ccc(Nc2cc(C)nc3nc(C)nn23)cc1
2. C=C(CN1CCN(c2cccc(F)c2)CC1)c1ccc(C(=O)Nc2ccccc2N)cc1

1: 46.1 µM; 2: 2.74 µM

Items follow; give GI50 for each.
1. O=C(CN1CCN(c2ccc(Cl)cc2)CC1)N1CCN(c2nnc(-c3ccccc3)c(-c3ccccc3)n2)CC1
2. O=S(=O)(NCCCNc1cc(-c2cn(-c3ccccc3)nc2-c2cccc(O)c2)ccn1)c1ccc(Cl)cc1

8.23 µM
2.23 µM

Items follow; give GI50 for each.
1. COC(=O)c1ccc(C2SCC(=O)N2NC(=O)C(O)c2ccccc2)cc1 (centres undefined)
2. O=C(Nc1ccc(Br)cc1F)c1cc(Br)ccc1O
3. COc1cc2c3c(c4c5ccccc5[nH]c4c2c(OC)c1OC)C(=O)N(CCN1CCCCC1)C3=O

1. > 100 µM
2. 0.519 µM
3. 1.1 µM
